# method notes: Single ascending oral dose study in healthy volunteers: plasma pharmacokinetics
# Format: in vivo, human
# experimental parameters: human, plasma, oral, 3 mg, 72 Hours Postdose; 3 mg; read-out: Plasma concentration, Mean
recorded metric: concentration at 72 h

State, in one line, measured concentration at 72 h of Cn1cc(S(=O)(=O)[C@@](C)(F)C2CCN(C(=O)Nc3ccon3)CC2)c(C(F)F)n1 [Compound I] 0.586 ng/mL

* * *

# method notes: Single ascending oral dose study in healthy volunteers: plasma pharmacokinetics
# Type: in vivo, human
# experimental parameters: human, plasma, oral, 25 mg; read-out: Mean Residence Time, Mean
recorded metric: MRT (h)
API: value field is a number in h; no unit string.

State, in one line, measured MRT of Cn1cc(S(=O)(=O)[C@@](C)(F)C2CCN(C(=O)Nc3ccon3)CC2)c(C(F)F)n1 20.8

* * *

# method notes: Physicochemical and biopharmaceutical properties of the drug substance (PBPK model input)
# experimental parameters: blood and plasma; Human; in vitro measured; read-out: B:P (Human), ratio of concentration of drug in blood to plasma
recorded metric: blood plasma ratio
Just the number.

State, in one line, measured blood plasma ratio of Cn1cc(S(=O)(=O)[C@@](C)(F)C2CCN(C(=O)Nc3ccon3)CC2)c(C(F)F)n1 [Compound I] 0.85

* * *

# method notes: Single ascending oral dose study in healthy volunteers: plasma pharmacokinetics
# Type: in vivo, human
# experimental parameters: human, plasma, oral, 12 Hours Postdose; 350 mg + 525 mg; read-out: Plasma concentration, Mean
recorded metric: concentration at 12 h (ng/mL)
API: value field is a number in ng/mL; no unit string.

State, in one line, measured concentration at 12 h of Cn1cc(S(=O)(=O)[C@@](C)(F)C2CCN(C(=O)Nc3ccon3)CC2)c(C(F)F)n1 [Compound I] 1990

* * *

# method notes: Food effect cross-over study, 200 mg (25 mg tablets), healthy volunteers: plasma pharmacokinetics
# Type: in vivo, human
# experimental parameters: human, plasma, po, single 200 mg oral dose, Fasted (N = 10), read-out: AUClast, Mean
recorded metric: AUC(0-t)
Answer with the number, then the unit.

State, in one line, measured AUC(0-t) of Cn1cc(S(=O)(=O)[C@@](C)(F)C2CCN(C(=O)Nc3ccon3)CC2)c(C(F)F)n1 60200 ng·h/mL

* * *

# method notes: Single ascending oral dose study in healthy volunteers: plasma pharmacokinetics
# Type: in vivo, human
# experimental parameters: human, plasma, oral, 175 mg, 6 Hours Postdose; 175 mg; read-out: Plasma concentration, Mean
recorded metric: concentration at 6 h (ng/mL)
API: value field is a number in ng/mL; no unit string.

State, in one line, measured concentration at 6 h of Cn1cc(S(=O)(=O)[C@@](C)(F)C2CCN(C(=O)Nc3ccon3)CC2)c(C(F)F)n1 1270

* * *

# method notes: Single ascending oral dose study in healthy volunteers: plasma pharmacokinetics
# Assay type: in vivo, human
# experimental parameters: human, plasma, oral, 25 mg, 72 Hours Postdose; 25 mg; read-out: Plasma concentration, Geometric Mean
recorded metric: concentration at 72 h (ng/mL)
API: value field is a number in ng/mL; no unit string.

State, in one line, measured concentration at 72 h of Cn1cc(S(=O)(=O)[C@@](C)(F)C2CCN(C(=O)Nc3ccon3)CC2)c(C(F)F)n1 8.4

* * *

# method notes: Food effect cross-over study, 200 mg (25 mg tablets), healthy volunteers: plasma pharmacokinetics
# Type: in vivo, human
# experimental parameters: human, plasma, oral, 72 hours postdose, Fed, read-out: Plasma concentration, Geometric Mean
recorded metric: concentration at 72 h (ng/mL)
API: value field is a number in ng/mL; no unit string.

State, in one line, measured concentration at 72 h of Cn1cc(S(=O)(=O)[C@@](C)(F)C2CCN(C(=O)Nc3ccon3)CC2)c(C(F)F)n1 129

* * *

# method notes: Single ascending oral dose study in healthy volunteers: plasma pharmacokinetics
# Assay type: in vivo, human
# experimental parameters: human, plasma, oral, 25 mg, 12 Hours Postdose; 25 mg; read-out: Plasma concentration, Geometric Mean
recorded metric: concentration at 12 h (ng/mL)
API: value field is a number in ng/mL; no unit string.

State, in one line, measured concentration at 12 h of Cn1cc(S(=O)(=O)[C@@](C)(F)C2CCN(C(=O)Nc3ccon3)CC2)c(C(F)F)n1 205

* * *

# method notes: Single ascending oral dose study in healthy volunteers: plasma pharmacokinetics
# Format: in vivo, human
# experimental parameters: human, plasma, oral, 350 mg + 525 mg; read-out: Mean Residence Time, Geometric Mean
# Text: This example describes the first-in-human study of Compound I. Based on its mechanism of action, Compound I may offer a targeted therapy for patients with DCM caused by genetic or nongenetic mechanisms. […] The concentrations of Compound I in human plasma and urine were quantitated by high performance liquid chromatography with tandem mass spectrometric detection (LC MS/MS) (Biological sample analysis study report Alturas AD17-726). […]
recorded metric: MRT (h)
API: value field is a number in h; no unit string.

State, in one line, measured MRT of Cn1cc(S(=O)(=O)[C@@](C)(F)C2CCN(C(=O)Nc3ccon3)CC2)c(C(F)F)n1 23.9

* * *

# method notes: Single ascending oral dose study in healthy volunteers: plasma pharmacokinetics
# Type: in vivo, human
# experimental parameters: human, plasma, oral, 10 mg; read-out: AUC0-24, Median
recorded metric: AUC(0-t) (ng·h/mL)
API: value field is a number in ng·h/mL; no unit string.

State, in one line, measured AUC(0-t) of Cn1cc(S(=O)(=O)[C@@](C)(F)C2CCN(C(=O)Nc3ccon3)CC2)c(C(F)F)n1 2250

* * *

# method notes: Single ascending oral dose study in healthy volunteers: plasma pharmacokinetics
# Assay type: in vivo, human
# experimental parameters: human, plasma, oral, 525 mg; read-out: AUC0-48, Geometric Mean
recorded metric: AUC(0-t) (ng·h/mL)
API: value field is a number in ng·h/mL; no unit string.

State, in one line, measured AUC(0-t) of Cn1cc(S(=O)(=O)[C@@](C)(F)C2CCN(C(=O)Nc3ccon3)CC2)c(C(F)F)n1 57000

* * *

# method notes: Single ascending oral dose study in healthy volunteers: plasma pharmacokinetics
# Assay type: in vivo, human
# experimental parameters: human, plasma, oral, 525 mg; read-out: Vz/F, Median
recorded metric: Vd/F
Answer with the number, then the unit.

State, in one line, measured Vd/F of Cn1cc(S(=O)(=O)[C@@](C)(F)C2CCN(C(=O)Nc3ccon3)CC2)c(C(F)F)n1 171 L

* * *

# method notes: Single ascending oral dose study in healthy volunteers: plasma pharmacokinetics
# Type: in vivo, human
# experimental parameters: human, plasma, oral, 25 mg; read-out: AUC0-∞, Mean
recorded metric: AUC(0-inf) (ng·h/mL)
API: value field is a number in ng·h/mL; no unit string.

State, in one line, measured AUC(0-inf) of Cn1cc(S(=O)(=O)[C@@](C)(F)C2CCN(C(=O)Nc3ccon3)CC2)c(C(F)F)n1 7290

* * *

# method notes: HFrEF study Part 2 (MAD Cohorts A-D): plasma pharmacokinetics
# Assay type: in vivo, human
# experimental parameters: human, plasma, oral, 50 mg, MAD Cohort B, 50 mg BID (with food); steady state; individual subjects; read-out: AUC_TAU
recorded metric: AUC
Answer with the number, then the unit.

State, in one line, measured AUC of Cn1cc(S(=O)(=O)[C@@](C)(F)C2CCN(C(=O)Nc3ccon3)CC2)c(C(F)F)n1 [Compound I] 29700 ng·h/mL

* * *

# method notes: Single ascending oral dose study in healthy volunteers: plasma pharmacokinetics
# Type: in vivo, human
# experimental parameters: human, plasma, oral, 350 mg; read-out: AUC0-48, Median
recorded metric: AUC(0-t)

State, in one line, measured AUC(0-t) of Cn1cc(S(=O)(=O)[C@@](C)(F)C2CCN(C(=O)Nc3ccon3)CC2)c(C(F)F)n1 [Compound I] 66400 ng·h/mL

* * *

# method notes: Single ascending oral dose study in healthy volunteers: plasma pharmacokinetics
# Assay type: in vivo, human
# experimental parameters: human, plasma, oral, 350 mg; read-out: AUC0-last, Median
recorded metric: AUC(0-t) (ng·h/mL)
API: value field is a number in ng·h/mL; no unit string.

State, in one line, measured AUC(0-t) of Cn1cc(S(=O)(=O)[C@@](C)(F)C2CCN(C(=O)Nc3ccon3)CC2)c(C(F)F)n1 76200

* * *

# method notes: Food effect cross-over study, 200 mg (25 mg tablets), healthy volunteers: plasma pharmacokinetics
# Format: in vivo, human
# experimental parameters: human, plasma, oral, 48 hours postdose, Fed, read-out: Plasma concentration, Mean
recorded metric: concentration at 48 h (ng/mL)
API: value field is a number in ng/mL; no unit string.

State, in one line, measured concentration at 48 h of Cn1cc(S(=O)(=O)[C@@](C)(F)C2CCN(C(=O)Nc3ccon3)CC2)c(C(F)F)n1 526
